Recorded IC50 values for a group of compounds are listed next.
# Test system: recombinant human MAO-A (monoamine oxidase-A) (Homo sapiens)
# Construct: purchased Sigma-Aldrich
# Sequence (P21397 whole entry): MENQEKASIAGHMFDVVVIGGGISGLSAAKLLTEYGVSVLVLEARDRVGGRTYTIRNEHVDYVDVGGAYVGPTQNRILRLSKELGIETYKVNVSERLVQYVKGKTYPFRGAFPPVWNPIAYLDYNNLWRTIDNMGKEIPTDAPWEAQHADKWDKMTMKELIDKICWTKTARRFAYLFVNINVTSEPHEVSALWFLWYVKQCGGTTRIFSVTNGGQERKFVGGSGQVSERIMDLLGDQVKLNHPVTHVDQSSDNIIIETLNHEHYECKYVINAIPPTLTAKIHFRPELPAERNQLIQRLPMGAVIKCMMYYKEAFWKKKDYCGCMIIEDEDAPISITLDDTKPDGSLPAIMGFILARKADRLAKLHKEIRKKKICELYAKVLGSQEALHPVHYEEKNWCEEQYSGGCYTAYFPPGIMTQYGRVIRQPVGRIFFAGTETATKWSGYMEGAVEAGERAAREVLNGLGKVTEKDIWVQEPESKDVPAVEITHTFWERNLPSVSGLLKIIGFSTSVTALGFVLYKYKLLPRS
# Assay overview: Activity on recombinant human MAO-A, method similar to the VAP-1 assay
# Format: biochemical
# Assay conditions: substrate 0.5 mM tyramine; read-out: Inhibitory Activity (IC50, nM) MAO-A
Structures can show the parent of a compound that is named as a salt.

Use the examples below as a reference point.
compound=Cc1c(-c2ccc(Cn3cnn(C/C(=C/F)CN)c3=O)s2)ccc2c1NCCO2 value_kind=IC50 result="21000 nM"
compound="NC/C(=C\\F)Cn1ncn(Cc2ccc(-c3ccc4c(c3)CNC4=O)s2)c1=O [Example 68, hydrochloride]" value_kind=IC50 result="> 100000 nM"
compound=CS(=O)(=O)c1cccc(-c2ccc(Cn3cnn(C/C(=C/F)CN)c3=O)s2)c1 value_kind=IC50 result="> 100000 nM"
compound="Cc1c(-c2ccc(Cn3cnn(C/C(=C/F)CN)c3=O)s2)ccc2c1NC(=O)CO2 [Example 92, hydrochloride]" value_kind=IC50 result="29000 nM"
compound=NC/C(=C\F)Cn1ncn(Cc2ccc(-c3ccc(-c4nnc[nH]4)cc3)s2)c1=O value_kind=IC50 result="> 100000 nM"
compound="NC/C(=C\\F)Cn1ncn(Cc2ccc(C#CCN3CCS(=O)(=O)CC3)s2)c1=O [Example 132, hydrochloride]" value_kind=IC50 result="> 100000 nM"
compound="NC/C(=C\\F)Cn1ncn(Cc2ccc(-c3cc(F)c4[nH]c(=O)ccc4c3)s2)c1=O [Example 82, hydrochloride]" value_kind=IC50 result="> 100000 nM"
compound=Cc1cscc1-c1ccc(Cn2cnn(C/C(=C/F)CN)c2=O)s1 value_kind=IC50 result="> 100000 nM"
compound=CCS(=O)(=O)c1ccc(-c2ccc(Cn3cnn(C/C(=C/F)CN)c3=O)s2)cc1 value_kind=IC50 result="> 100000 nM"
compound=Cc1c(-c2ccc(Cn3cnn(C/C(=C/F)CN)c3=O)s2)ccc2c1NC(=O)CC2 value_kind=IC50 result="> 100000 nM"

**Q:** What IC50 value was documented for this compound, "Cn1c(-c2ccc(Cn3cnn(C/C(=C/F)CN)c3=O)s2)cnc1Cl" ?
**A:** > 100000 nM

**Q:** What IC50 value was documented for this compound, CS(=O)(=O)Nc1ccc(-c2ccc(Cn3cnn(C/C(=C/F)CN)c3=O)s2)cc1 [Example 7, hydrochloride] ?
**A:** 35000 nM

* * *

# Test system: recombinant human DAO (diamine oxidase) (Homo sapiens)
# Construct: purchased R&D systems
# Sequence (P19801 20-751): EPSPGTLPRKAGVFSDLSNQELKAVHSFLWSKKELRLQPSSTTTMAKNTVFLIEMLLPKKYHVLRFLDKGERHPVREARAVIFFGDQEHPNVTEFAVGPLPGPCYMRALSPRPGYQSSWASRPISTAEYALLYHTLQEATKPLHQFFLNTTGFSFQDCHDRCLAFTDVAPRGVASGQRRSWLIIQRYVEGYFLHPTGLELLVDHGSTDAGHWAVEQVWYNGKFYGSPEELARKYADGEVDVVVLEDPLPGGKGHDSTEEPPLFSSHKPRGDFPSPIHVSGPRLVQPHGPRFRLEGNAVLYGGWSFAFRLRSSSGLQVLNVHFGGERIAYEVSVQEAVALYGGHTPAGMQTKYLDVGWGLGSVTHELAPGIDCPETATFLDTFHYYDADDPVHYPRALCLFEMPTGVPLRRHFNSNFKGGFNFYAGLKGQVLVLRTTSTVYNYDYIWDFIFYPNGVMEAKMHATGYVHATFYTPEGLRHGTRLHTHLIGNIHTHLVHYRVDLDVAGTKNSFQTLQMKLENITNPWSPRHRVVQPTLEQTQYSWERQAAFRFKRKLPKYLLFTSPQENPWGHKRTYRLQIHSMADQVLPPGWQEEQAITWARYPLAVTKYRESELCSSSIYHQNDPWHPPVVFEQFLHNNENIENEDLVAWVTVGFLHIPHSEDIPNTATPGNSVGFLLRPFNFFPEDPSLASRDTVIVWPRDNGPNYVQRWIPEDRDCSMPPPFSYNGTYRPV
# Assay overview: Activity on recombinant human DAO, method similar to the VAP-1 assay
# Type: biochemical
# Assay conditions: substrate 1 mM putrescine; read-out: Inhibitory Activity (IC50, nM) DAO
Counter-ions that a name gives are not always drawn.
Value kind: IC50 (nM)

Use the examples below as a reference point.
compound="NC/C(=C\\F)Cn1ncn(Cc2ccc(-c3cccc(S(=O)(=O)N4CCCC4)c3)s2)c1=O [Example 28, hydrochloride]" value_kind=IC50 numeric_readout=120
compound="NC/C(=C\\F)Cn1ncn(Cc2ccc(-c3ccc4c(c3F)NCCO4)s2)c1=O [Example 106]" value_kind=IC50 numeric_readout=2500
compound="NC/C(=C\\F)Cn1ncn(Cc2ccc(-c3cccc(-c4noc(C5CC5)n4)c3)s2)c1=O [Example 36, hydrochloride]" value_kind=IC50 numeric_readout=344
compound="NC/C(=C\\F)Cn1ncn(Cc2ccc(C#CCN3CCS(=O)(=O)CC3)s2)c1=O [Example 132, hydrochloride]" value_kind=IC50 numeric_readout=1400

1. Cn1nc(C(F)(F)F)cc1-c1ccc(Cn2cnn(C/C(=C/F)CN)c2=O)s1 [Example 162]
2. Cn1c(-c2ccc(Cn3cnn(C/C(=C/F)CN)c3=O)s2)cnc1Cl [Example 154]
**Q:** Which is greater in IC50, the first item 1 or the second item 2 ? To answer, give the label that identifies your chosen option.
**A:** 2
(2: 690 nM, 1: 250 nM)

1. NC/C(=C\F)Cn1ncn(Cc2ccc(C#Cc3ccc4c(c3)NCCO4)s2)c1=O [Example 134]
2. Cc1cc(-c2ccc(Cn3cnn(C/C(=C/F)CN)c3=O)s2)n(C)n1 [Example 158]
3. NC/C(=C\F)Cn1ncn(Cc2ccc(-c3ccc4c(c3)C(=O)NCC4)s2)c1=O [Example 74, hydrochloride]
4. CC(C)n1nccc1-c1ccc(Cn2cnn(C/C(=C/F)CN)c2=O)s1 [Example 161]
**Q:** Form: Sort by [IC50] Order [ ascending ] The response must list the labels following the requested ordering.
**A:** 2, 3, 1, 4
(2: 340 nM, 3: 620 nM, 1: 2100 nM, 4: 4300 nM)

P. NC/C(=C\F)Cn1ncn(Cc2ccc(-c3ccc(-c4ccon4)cc3)s2)c1=O [Example 40, hydrochloride]
Q. NC/C(=C\F)Cn1ncn(Cc2ccc(-c3cnn(Cc4ccccc4)c3)s2)c1=O [Example 151]
R. NC/C(=C\F)Cn1ncn(Cc2ccc(Cc3ccc(OC(F)(F)F)cc3)s2)c1=O [Example 168]
**Q:** Form: Sort by [IC50] Order [ ascending ] The response must list the labels following the requested ordering.
**A:** P, Q, R
(P: 370 nM, Q: 790 nM, R: 4500 nM)

1. CS(=O)(=O)c1ccc(-c2ccc3sc(Cn4cnn(C/C(=C/F)CN)c4=O)cc3c2)cc1 [Example 208]
2. COC(=O)c1ccc(-c2ccc(Cn3cnn(C/C(=C/F)CN)c3=O)s2)cc1 [Example 10, hydrochloride]
3. NC/C(=C\F)Cn1ncn(Cc2ccc(-c3cccc4ncccc34)s2)c1=O [Example 113, hydrochloride]
**Q:** Sequence the entries by IC50, beginning with the highest number. The response must list the labels following the requested ordering.
**A:** 1, 2, 3

* * *

# Test system: recombinant human DAO (diamine oxidase) (Homo sapiens)
# Construct: purchased R&D systems
# Assay overview: Activity on recombinant human DAO, method similar to the VAP-1 assay
# Type: biochemical
# Assay conditions: substrate 1 mM putrescine; read-out: Inhibitory Activity (IC50, nM) DAO
Where a name gives a salt, the structure may show the parent alone.
Value kind: IC50 (nM)

Use the examples below as a reference point.
compound=Cn1cc(-c2ccc(Cn3cnn(C/C(=C/F)CN)c3=O)s2)cn1 numeric_readout=11000
compound=NC/C(=C\F)Cn1ncn(Cc2ccc(-c3cnn(C4CCNCC4)c3)s2)c1=O numeric_readout=1800
compound=CC(=O)Nc1nc2cc(-c3ccc(Cn4cnn(C/C(=C/F)CN)c4=O)s3)ccc2s1 numeric_readout=780
compound="NC/C(=C\\F)Cn1ncn(Cc2ccc(-c3cccc4cnccc34)s2)c1=O [Example 114, hydrochloride]" numeric_readout=110

A. NC/C(=C\F)Cn1ncn(Cc2ccc(-c3cc(F)c4[nH]c(=O)ccc4c3)s2)c1=O [Example 82, hydrochloride]
B. NC/C(=C\F)Cn1ncn(Cc2ccc(-c3ccc(F)c(C(F)(F)F)c3)s2)c1=O [Example 15, hydrochloride]
C. NC/C(=C\F)Cn1ncn(Cc2ccc(/C=C/c3ccc(F)cc3)s2)c1=O [Example 117, hydrochloride]
D. Cc1cc(-c2ccc(CCn3cnn(C/C(=C/F)CN)c3=O)s2)cc2c1NC(=O)CC2
**Q:** Form: Sort by [IC50] Order [ ascending ] The response must list the labels following the requested ordering.
**A:** D, A, B, C

* * *

# Test system: recombinant human MAO-B (monoamine oxidase-B) (Homo sapiens)
# Construct: purchased Sigma-Aldrich
# Sequence (P27338 1-520): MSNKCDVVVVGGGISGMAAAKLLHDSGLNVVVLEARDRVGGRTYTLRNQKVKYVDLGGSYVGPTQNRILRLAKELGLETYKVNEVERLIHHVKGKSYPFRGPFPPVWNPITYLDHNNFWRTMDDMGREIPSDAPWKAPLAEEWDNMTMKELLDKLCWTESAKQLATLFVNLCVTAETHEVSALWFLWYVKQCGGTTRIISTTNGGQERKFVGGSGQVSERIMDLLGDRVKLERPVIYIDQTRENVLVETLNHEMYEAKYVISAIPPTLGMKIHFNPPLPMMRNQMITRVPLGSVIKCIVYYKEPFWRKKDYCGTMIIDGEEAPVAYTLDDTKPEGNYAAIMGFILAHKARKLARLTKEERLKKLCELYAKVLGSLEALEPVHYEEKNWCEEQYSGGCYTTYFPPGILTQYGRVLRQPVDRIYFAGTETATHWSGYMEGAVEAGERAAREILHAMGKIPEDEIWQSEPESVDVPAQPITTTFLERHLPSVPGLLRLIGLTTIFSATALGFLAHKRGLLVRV
# Assay overview: Activity on recombinant human MAO-B, method similar to the VAP-1 assay
# Type: biochemical
# Assay conditions: substrate 1 mM benzylamine; read-out: Inhibitory Activity (IC50, nM) MAO-B
Structures can show the parent of a compound that is named as a salt.
Value kind: IC50 (nM)

compound="COc1ccc(-c2ccc(Cn3cnn(C/C(=C/F)CN)c3=O)s2)cc1OC [Example 16, hydrochloride]" test_system="recombinant human MAO-B (monoamine oxidase-B) (Homo sapiens)" value_kind=IC50 numeric_readout=300

P. CNC(=O)c1ccc(-c2ccc(Cn3cnn(C/C(=C/F)CN)c3=O)s2)cc1
Q. NC/C(=C\F)Cn1ncn(Cc2ccc(-c3ccc4c(c3F)NCCO4)s2)c1=O
**Q:** Which is greater in IC50, the first item P or the second item Q ? To answer, give the label that identifies your chosen option.
**A:** P
(P: 1900 nM, Q: 250 nM)
